This collection of values is drawn from patent US20210355121A1.

# TESTED TARGET: KRAS G12C (Homo sapiens, UniProt P01116, G12C)
# Sequence (P01116 1-188 isoform P01116-2 G12C): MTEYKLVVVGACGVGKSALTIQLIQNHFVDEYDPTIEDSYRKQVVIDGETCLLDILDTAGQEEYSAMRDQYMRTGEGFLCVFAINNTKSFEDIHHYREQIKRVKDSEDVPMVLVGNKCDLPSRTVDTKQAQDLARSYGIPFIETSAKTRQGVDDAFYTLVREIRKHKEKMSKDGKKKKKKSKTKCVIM
# PROTOCOL: KRAS G12C GDP-GTP exchange assay (bodipy-GDP for GppNHp, with SOS1)
# STATED CONDITIONS: 2.5 nM bodipy-loaded KRAS G12C, 2 hours pre-incubation with inhibitor, 2 hours after GppNHp-SOS1; read-out: G12C_exchange (KRAS_G12C exchange assay IC50)
MEASURED QUANTITY: IC50

Please review the following examples before continuing.
# MOLECULE, IC50
measured = [
    ("COC/C=C/C(=O)N1CC[C@H](n2ncc3c(N4CC(C)(N(C)C)C4)nc4c(F)c(-c5c(C)c(C)cc6[nH]ncc56)c(Cl)cc4c32)C[C@H]1CC#N (single isomer, unassigned) [Example 83a]", "≤ 100 nM"),
    ("Cc1cc2[nH]ncc2c(-c2c(Cl)cc3c(nc(OC[C@@H]4CCCN4C)c4cnn([C@H]5CCN(C(=O)/C=C/CN(C)C)[C@H](CC#N)C5)c43)c2F)c1C (single isomer, unassigned) [Example 80a]", "≤ 100 nM"),
    ("COC/C=C/C(=O)N1CC[C@H](n2ncc3c(O[C@@H](C)[C@@H]4CCCN4C)nc4c(F)c(-c5cccc6cccc(C#N)c56)c(C)cc4c32)C[C@H]1CC#N (single isomer, unassigned) [Example 57b]", "≤ 100 nM"),
    ("Cc1cccc(-c2c(Cl)cc3c(nc(N4CC(N(C)C)C4)c4cnn([C@H]5CCN(C(=O)/C=C/CN(C)C)[C@H](CC#N)C5)c43)c2F)c1Cl", "≤ 100 nM"),
]

Lookup: Any idea what IC50 was measured for Cc1cc2[nH]ncc2c(-c2c(C)cc3c(nc(N4CC(C)(N(C)C)C4)c4cnn([C@H]5CCN(C(=O)/C=C/CF)[C@H](CC#N)C5)c43)c2F)c1C (single isomer, unassigned) [Example 64a] ?
Found: ≤ 100 nM

Lookup: Check Cc1c(Cl)cc2[nH]ncc2c1-c1c(Cl)cc2c(nc(N3CC(C)(N(C)C)C3)c3cnn([C@H]4CCN(C(=O)/C=C/C(F)F)[C@H](CC#N)C4)c32)c1F (single isomer, unassigned) [Example 14a] too.
Found: ≤ 100 nM

Lookup: Field entry: C=CC(=O)N1CC[C@H](n2ncc3c(N4CC(N(C)C)C4)nc4c(F)c(-c5c(C)c(Cl)cc6[nH]ncc56)c(Cl)cc4c32)C[C@H]1CC#N (single isomer, unassigned) [Example 3b]
Found: ≤ 100 nM

Lookup: Then what about the molecule Cc1cc2c(nc(N3CC(C)(N(C)C)C3)c3cnn([C@H]4CCN(C(=O)/C=C/CN(C)C)[C@H](CC#N)C4)c32)c(F)c1-c1cccc2cccc(C#N)c12 (single isomer, unassigned) [Example 62a] ?
Found: ≤ 100 nM

Lookup: Next molecule up: COC/C=C/C(=O)N1CC[C@H](n2ncc3c(N4CC(C)(N(C)C)C4)nc4c(F)c(-c5c(C)c(Cl)cc6[nH]ncc56)c(Cl)cc4c32)C[C@H]1CC#N (single isomer, unassigned) [Example 12a]
Found: ≤ 100 nM
